What LC50 was measured for each of the following?
- Test system: Pontoscolex corethrurus
- MEASUREMENT_CONDITIONS: acute; mortality
Answers are plain numbers, in mg/kg.

Worked cases, answers included:
| COMPOUND_SMILES | SYSTEM_TESTED | PROPERTY_NAME | UNIT_ABBREV | MEAS_VALUE |
| --- | --- | --- | --- | --- |
| CCc1nccnc1C(C)=O | Pontoscolex corethrurus | LC50 | mg/kg | 360 |
| CCc1nccnc1CC | Pontoscolex corethrurus | LC50 | mg/kg | 236 |

Below is a list of molecules. For each, state its recorded LC50.
1. Cc1csc(C(C)C)n1
2. CCCC/C=C\CCO
3. COc1nccnc1C

Reply:
[194, 194, 245]

---

- System: Rattus norvegicus
- MEASUREMENT_CONDITIONS: subchronic; duration: 90 days; oral; diet; M/F; Sprague-Dawley; no effects
Friendly reminder: NOAEL below 0.7 mg/kg-day is y, at or above is n.

| COMPOUND | CLASS_LABEL |
| --- | --- |
| CCC1SSC(CC)S1 (stereo not given) | y |
| OC1CSC(O)CS1 (stereo not given) | n |

Turning now to a further compound:
Query: is_below(NOAEL, 0.7 mg/kg-day) for CCCNC(=O)C(C)(C)COc1cccc2c1C(N)=NS(=O)(=O)N2 ?
Reply: n

---

- Tested on: Oncorhynchus mykiss
- MEASUREMENT_CONDITIONS: acute; duration: 96 hours; mortality
Could you please report measured LC50 for the items listed next?

Answered examples (3):
| COMPOUND | LC50 |
| --- | --- |
| CCN(CC)c1nc(C)cc(OP(=S)(OC)OC)n1 [Pirimiphos-methyl] | 0.2 mg/L |
| O=c1oc2ccccc2c(O)c1C1CC(c2ccc(-c3ccccc3)cc2)Cc2ccccc21 (centres undefined) [Difenacoum] | 0.064 mg/L |
| C/C=C(\C)C(=O)O[C@H]1C[C@@H](OC(C)=O)[C@@]2(C(=O)OC)CO[C@H]3[C@@H](O)[C@@](C)([C@]45O[C@@]4(C)[C@H]4C[C@@H]5O[C@@H]5OC=C[C@@]54O)[C@H]4[C@]1(CO[C@]4(O)C(=O)OC)[C@@H]32 [Azadirachtin] | 0.048 mg/L |

Below: the item to evaluate.
Query: Looking for the measured LC50 of CBr [Methyl bromide] , can you help?
Reply: 3.9 mg/L

---

- Test system: Rattus norvegicus
- MEASUREMENT_CONDITIONS: acute; oral; mortality
PROPERTY_NAME: LD50

# batch size: 8; output LD50 per entry
1. O=c1oc2ccccc2c(O)c1C1CC(c2ccc(-c3ccccc3)cc2)Cc2ccccc21 (stereo not drawn)
2. CBr [Methyl bromide]
3. NC(Cc1ncn[nH]1)C(=O)O (stereo not drawn)
4. ClC1=C(Cl)[C@]2(Cl)[C@@H]3[C@@H]4C[C@@H]([C@H]5O[C@@H]45)[C@@H]3[C@@]1(Cl)C2(Cl)Cl
5. C=C1C[C@]23C[C@@]1(O)CC[C@H]2[C@@]12C=C[C@H](O)[C@@](C)(C(=O)O1)[C@H]2[C@@H]3C(=O)O
6. CCS(=O)(=O)c1cccnc1S(=O)(=O)NC(=O)Nc1nc(OC)cc(OC)n1
7. O=C(O)CNCP(=O)(O)O [Glyphosate]
8. O=C(NC(=O)c1c(F)cccc1F)Nc1ccc(Cl)cc1

Reply:
1. 1.8 mg/kg-day
2. 104 mg/kg
3. > 5000 mg/kg-day
4. 25 mg/kg-day
5. > 5000 mg/kg
6. > 5000 mg/kg-day
7. > 2000 mg/kg-day
8. > 4640 mg/kg

FYI, the data here is from EPA's ToxValDB 9.5.
